target_under_test: human Nav1.7 (hNav1.7) (Homo sapiens, UniProt Q15858)
Construct: expressed in transfected cells
Sequence (Q15858 whole entry): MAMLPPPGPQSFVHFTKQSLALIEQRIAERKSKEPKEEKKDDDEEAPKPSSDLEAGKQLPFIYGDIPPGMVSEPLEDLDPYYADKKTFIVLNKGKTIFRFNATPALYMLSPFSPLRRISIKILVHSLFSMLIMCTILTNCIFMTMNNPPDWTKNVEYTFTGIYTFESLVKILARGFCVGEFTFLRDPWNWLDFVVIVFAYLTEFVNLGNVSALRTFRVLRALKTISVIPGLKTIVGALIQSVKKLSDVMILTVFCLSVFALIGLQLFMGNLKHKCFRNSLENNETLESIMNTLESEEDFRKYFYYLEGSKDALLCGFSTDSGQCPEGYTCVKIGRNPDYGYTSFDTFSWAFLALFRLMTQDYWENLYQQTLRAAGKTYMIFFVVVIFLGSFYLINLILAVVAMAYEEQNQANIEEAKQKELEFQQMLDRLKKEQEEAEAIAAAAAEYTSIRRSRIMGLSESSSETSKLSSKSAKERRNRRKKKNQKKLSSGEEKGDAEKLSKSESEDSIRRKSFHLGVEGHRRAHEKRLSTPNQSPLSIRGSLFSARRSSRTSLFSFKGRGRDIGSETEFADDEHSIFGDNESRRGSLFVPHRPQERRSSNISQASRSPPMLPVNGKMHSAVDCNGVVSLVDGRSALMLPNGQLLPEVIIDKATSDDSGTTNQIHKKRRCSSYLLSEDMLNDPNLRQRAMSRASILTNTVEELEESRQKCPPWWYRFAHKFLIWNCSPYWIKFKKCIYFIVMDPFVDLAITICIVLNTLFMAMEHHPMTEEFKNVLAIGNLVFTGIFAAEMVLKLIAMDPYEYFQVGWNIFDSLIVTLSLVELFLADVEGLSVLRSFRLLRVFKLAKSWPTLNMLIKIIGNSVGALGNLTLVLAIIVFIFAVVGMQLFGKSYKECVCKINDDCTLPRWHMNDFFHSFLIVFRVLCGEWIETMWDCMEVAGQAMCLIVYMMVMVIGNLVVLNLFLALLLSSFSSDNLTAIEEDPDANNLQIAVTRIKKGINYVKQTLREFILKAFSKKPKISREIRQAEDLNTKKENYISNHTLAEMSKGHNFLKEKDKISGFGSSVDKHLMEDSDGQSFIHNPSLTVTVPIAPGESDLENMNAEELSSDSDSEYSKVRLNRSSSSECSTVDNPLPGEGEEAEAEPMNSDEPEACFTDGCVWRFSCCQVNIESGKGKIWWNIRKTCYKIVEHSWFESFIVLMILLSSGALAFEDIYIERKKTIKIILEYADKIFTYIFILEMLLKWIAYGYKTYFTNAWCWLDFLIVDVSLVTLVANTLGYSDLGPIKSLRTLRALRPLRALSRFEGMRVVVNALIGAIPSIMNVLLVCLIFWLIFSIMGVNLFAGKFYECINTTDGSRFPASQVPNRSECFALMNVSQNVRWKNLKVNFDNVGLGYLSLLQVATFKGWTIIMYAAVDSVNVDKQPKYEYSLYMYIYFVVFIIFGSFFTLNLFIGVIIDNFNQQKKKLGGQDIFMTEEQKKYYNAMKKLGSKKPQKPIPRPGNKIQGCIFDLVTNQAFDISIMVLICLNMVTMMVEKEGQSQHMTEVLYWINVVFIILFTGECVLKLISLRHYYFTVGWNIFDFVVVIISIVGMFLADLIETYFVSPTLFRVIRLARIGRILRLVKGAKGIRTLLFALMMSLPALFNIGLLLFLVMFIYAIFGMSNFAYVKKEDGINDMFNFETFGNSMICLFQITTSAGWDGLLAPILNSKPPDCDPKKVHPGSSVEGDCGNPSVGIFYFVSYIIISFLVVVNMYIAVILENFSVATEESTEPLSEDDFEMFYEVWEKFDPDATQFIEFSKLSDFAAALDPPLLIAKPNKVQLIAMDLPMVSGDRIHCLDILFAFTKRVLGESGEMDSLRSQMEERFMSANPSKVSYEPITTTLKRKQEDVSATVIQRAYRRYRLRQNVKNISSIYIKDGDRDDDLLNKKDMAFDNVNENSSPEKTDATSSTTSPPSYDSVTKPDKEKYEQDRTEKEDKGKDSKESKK
assay: hNav1.7 whole-cell patch-clamp electrophysiology (automated PatchXpress 7000A or manual) in stably expressing 293 cells
Type: cell-based
test_context: average IC50, human Nav1.7
measured_endpoint: IC50 (µM)

CNC(=O)c1cccc(Nc2ncnc(N3CCC(C#N)(c4ccc(Cl)cc4)CC3)n2)c1 [Example 147] = 2.92
CNC(=O)c1cc(F)cc(Nc2ncnc(N3CCC(Oc4ccc(OC(F)(F)F)cc4)CC3)n2)c1 [Example 146] = 2.91
CNC(=O)c1cccc(Nc2ncnc(N3CC(Oc4ccc(F)cc4F)C3)n2)c1 [Example 148] = 2.95

---

target_under_test: human Nav1.7 (hNav1.7) (Homo sapiens)
Construct: expressed in transfected cells
assay: hNav1.7 whole-cell patch-clamp electrophysiology (automated PatchXpress 7000A or manual) in stably expressing 293 cells
Type: cell-based
test_context: average IC50, human Nav1.7
measured_endpoint: IC50 (µM)

Some entries whose results are on file:
CCCc1noc(C2CCN(c3ncnc(Nc4cccc(C(=O)NC)c4)n3)CC2)n1 = 12.7
CNC(=O)c1cccc(Nc2ncnc(N3CC(Oc4ccc(C(C)C)cc4)C3)n2)c1 = 0.57
CNC(=O)c1cccc(Nc2ncnc(N3CCc4cc(Cl)ccc4C3)n2)c1 = 2.44
COCCNC(=O)c1cccc(Nc2ncnc(N3CC(Oc4ccc(Cl)cc4)C3)n2)c1 = 0.4
CNC(=O)c1cccc(Nc2ncnc(N3CC(Oc4cc(C)ccc4Cl)C3)n2)c1 = 0.84
CNC(=O)c1cccc(Nc2ncnc(N3CC(COc4cccc(Cl)c4)C3)n2)c1 = 7.03
CNC(=O)c1cccc(Nc2ncnc(N3CC(OCc4ccc(Cl)cc4)C3)n2)c1 = 1.82
CCNC(=O)c1cccc(Nc2ncnc(N3CC(Oc4ccc(F)cc4)C3)n2)c1 = 1.51

I. CNC(=O)c1cccc(Nc2ncnc(N3CC(COCc4ccc(C(F)(F)F)cc4)C3)n2)c1
II. CNC(=O)c1cccc(Nc2ncnc(N3CC(COc4ccc(Cl)c(F)c4)C3)n2)c1
III. CNC(=O)c1c(F)ccc(Nc2ncnc(N3CC(COc4ccc(Cl)cc4)C3)n2)c1F
IV. CNC(=O)c1cccc(Nc2ncnc(N3CCC(Oc4ccccc4OC(F)(F)F)CC3)n2)c1
V. CNC(=O)c1cccc(Nc2ncnc(N3CC(Oc4ccccc4Cl)C3)n2)c1
Input line: rank_up(items): orders items by reported IC50 in ascending numerical order. The labels, placed in the requested order, form the answer.
Output line: V, II, III, I, IV

---

target_under_test: human Nav1.7 (hNav1.7) (Homo sapiens)
Construct: expressed in transfected cells
assay: hNav1.7 whole-cell patch-clamp electrophysiology (automated PatchXpress 7000A or manual) in stably expressing 293 cells
Type: cell-based
test_context: average IC50, human Nav1.7
measured_endpoint: IC50 (µM)

Some entries whose results are on file:
CNC(=O)c1cccc(Nc2ncnc(N3CCC(c4nc(-c5ccccc5)no4)CC3)n2)c1 = 2.79
CNC(=O)c1cc(Nc2ncnc(N3CC(Oc4ccc(Cl)cc4F)C3)n2)ccc1F = 0.28
CNC(=O)c1cccc(Nc2ncnc(N3CC(COc4ccccc4OC(F)(F)F)C3)n2)c1 = 9.44
CNC(=O)c1cccc(Nc2ncnc(N3CC(COc4ccc(Cl)cc4C)C3)n2)c1 = 0.9
CNC(=O)c1cccc(Nc2ncnc(N3CCC(c4nc(-c5ccccc5)c(C)s4)CC3)n2)c1 = 4.22

I. CNC(=O)c1cccc(Nc2ncnc(N3CC(COc4ccc(Cl)cc4F)C3)n2)c1
II. CNC(=O)c1cccc(Nc2ncnc(NCc3nc(-c4ccccc4)no3)n2)c1
Input line: So which one has the bigger IC50 here, I or II ? API: response body contains the label of the selected item.
Output line: II

1. CNC(=O)c1cccc(Nc2ncnc(N3CCCC(Oc4ccccc4Cl)C3)n2)c1 (stereo not drawn)
2. CNC(=O)c1cc(F)cc(Nc2ncnc(N3CC(Oc4ccc(F)cc4)C3)n2)c1
3. CNC(=O)c1cccc(Nc2ncnc(N3CCC(C#Cc4ccccc4)CC3)n2)c1
4. CNC(=O)c1cccc(Nc2ccnc(N3CC(Oc4ccc(F)cc4)C3)n2)c1
5. CNC(=O)c1cccc(Nc2ncnc(N3CCC4(CC3)OCc3ccccc34)n2)c1
Input line: Descending sort on IC50 required. The labels, placed in the requested order, form the answer.
Output line: 5, 1, 3, 2, 4

---

target_under_test: human Nav1.7 (hNav1.7) (Homo sapiens, UniProt Q15858)
Construct: expressed in transfected cells
assay: hNav1.7 whole-cell patch-clamp electrophysiology (automated PatchXpress 7000A or manual) in stably expressing 293 cells
Type: cell-based
test_context: average IC50, human Nav1.7
Experimental: Compounds were tested on human Nav1.7 (hNav1.7) expressed stably in 293 cells, which have no endogenous sodium channels. Two forms of whole-cell patch-clamp assays were used. In both, peak current through Nav1.7 was evoked by a depolarizing voltage pulse, and currents were monitored as a function of time in response to exposure to several different concentrations of drug. Automated electrophysiology uses the PatchXpress 7000A system. […] IC50 were determined by fitting to the Hill equation.
measured_endpoint: IC50 (µM)

I. CNC(=O)c1cc(Nc2ncnc(N3CC(Oc4ccc(Cl)cc4)C3)n2)ccc1N(C)C
II. CNC(=O)c1cccc(Nc2ncnc(N3CCN(S(=O)(=O)c4ccc(OC(F)(F)F)cc4)CC3)n2)c1
Input line: So which one has the bigger IC50 here, I or II ? API: response body contains the label of the selected item.
Output line: II

P. CNC(=O)c1cccc(Nc2ncnc(N3CC(Oc4ccc(C(F)(F)F)cc4)C3)n2)c1
Q. CNC(=O)c1cccc(Nc2ncnc(N[C@H](C)CCc3ccccc3)n2)c1
R. CNC(=O)c1cccc(Nc2ncnc(N3CCC(OCc4ccccc4)CC3)n2)c1
Input line: Descending sort on IC50 required. The labels, placed in the requested order, form the answer.
Output line: R, Q, P

---

target_under_test: human Nav1.7 (hNav1.7) (Homo sapiens, UniProt Q15858)
Construct: expressed in transfected cells
assay: hNav1.7 whole-cell patch-clamp electrophysiology (automated PatchXpress 7000A or manual) in stably expressing 293 cells
Format: cell-based
test_context: average IC50, human Nav1.7
measured_endpoint: IC50 (µM)

CNC(=O)c1cccc(Nc2nccc(N3CC(Oc4ccc(Cl)c(F)c4)C3)n2)c1 = 0.74
CNC(=O)c1cccc(Nc2ncnc(N3CC(Oc4ccc(OC)cc4)C3)n2)c1 = 1.23

A. CNC(=O)c1cccc(Nc2ncnc(N3CCN(c4cccc(C)n4)CC3)n2)c1
B. CNC(=O)c1cccc(Nc2ncnc(N3CCC(c4nc(C(C)C)no4)CC3)n2)c1
C. CNC(=O)c1cc(F)cc(Nc2ncnc(N3CC(COc4ccc(C(F)(F)F)cc4)C3)n2)c1
Input line: rank_up(items): orders items by reported IC50 in ascending numerical order. The labels, placed in the requested order, form the answer.
Output line: A, C, B

---

target_under_test: human Nav1.7 (hNav1.7) (Homo sapiens)
Construct: expressed in transfected cells
assay: hNav1.7 whole-cell patch-clamp electrophysiology (automated PatchXpress 7000A or manual) in stably expressing 293 cells
Assay type: cell-based
test_context: average IC50, human Nav1.7
Description: Compounds were tested on human Nav1.7 (hNav1.7) expressed stably in 293 cells, which have no endogenous sodium channels. Two forms of whole-cell patch-clamp assays were used. In both, peak current through Nav1.7 was evoked by a depolarizing voltage pulse, and currents were monitored as a function of time in response to exposure to several different concentrations of drug. Automated electrophysiology uses the PatchXpress 7000A system. […] IC50 were determined by fitting to the Hill equation.
measured_endpoint: IC50 (µM)

Some entries whose results are on file:
CNC(=O)c1cccc(Nc2ncnc(N3CCc4cc(C(F)(F)F)ccc4C3)n2)c1 = 8.6
CNC(=O)c1cccc(Nc2ncnc(N3CC(Oc4c(F)cc(Cl)cc4F)C3)n2)c1 = 3.16
CNC(=O)c1cccc(Nc2ncnc(N3CC(Oc4cccc(OC)c4)C3)n2)c1 = 1.03
CNC(=O)c1cccc(Nc2ncnc(N3CCC(c4ccc(OC(F)(F)F)cc4)CC3)n2)c1 = 2.59
CNC(=O)c1cccc(Nc2ncnc(N3CC(Oc4ccccc4OC(F)(F)F)C3)n2)c1 = 4.93
CNC(=O)c1ccc(C)c(Nc2ncnc(N3CC(Oc4ccc(F)cc4)C3)n2)c1 = 3.65
CNC(=O)c1cccc(Nc2ncnc(N3CC(Oc4cccc(C(F)(F)F)c4)C3)n2)c1 = 0.82
CNC(=O)c1cccc(Nc2ncnc(N3CC(Oc4cccc(F)c4)C3)n2)c1 = 1.2
CNC(=O)c1cccc(Nc2ncnc(N3CCN(c4cccc(OC)c4)CC3)n2)c1 = 0.61

a. CNC(=O)c1cccc(Nc2ncnc(N3CCN(c4cccc(C(F)(F)F)c4)CC3)n2)c1
b. CNC(=O)c1cccc(Nc2ncnc(N3CCc4ccccc4C3)n2)c1
Input line: I'm curious, which of these has a smaller IC50 number: a or b ? API: response body contains the label of the selected item.
Output line: a
(a: 0.6 µM, b: 11.5 µM)
